// provenance: patent US9351955B2

experimentalSystem: CFTR-G178R (Homo sapiens, UniProt P13569, G178R)
Sequence (P13569 whole entry G178R): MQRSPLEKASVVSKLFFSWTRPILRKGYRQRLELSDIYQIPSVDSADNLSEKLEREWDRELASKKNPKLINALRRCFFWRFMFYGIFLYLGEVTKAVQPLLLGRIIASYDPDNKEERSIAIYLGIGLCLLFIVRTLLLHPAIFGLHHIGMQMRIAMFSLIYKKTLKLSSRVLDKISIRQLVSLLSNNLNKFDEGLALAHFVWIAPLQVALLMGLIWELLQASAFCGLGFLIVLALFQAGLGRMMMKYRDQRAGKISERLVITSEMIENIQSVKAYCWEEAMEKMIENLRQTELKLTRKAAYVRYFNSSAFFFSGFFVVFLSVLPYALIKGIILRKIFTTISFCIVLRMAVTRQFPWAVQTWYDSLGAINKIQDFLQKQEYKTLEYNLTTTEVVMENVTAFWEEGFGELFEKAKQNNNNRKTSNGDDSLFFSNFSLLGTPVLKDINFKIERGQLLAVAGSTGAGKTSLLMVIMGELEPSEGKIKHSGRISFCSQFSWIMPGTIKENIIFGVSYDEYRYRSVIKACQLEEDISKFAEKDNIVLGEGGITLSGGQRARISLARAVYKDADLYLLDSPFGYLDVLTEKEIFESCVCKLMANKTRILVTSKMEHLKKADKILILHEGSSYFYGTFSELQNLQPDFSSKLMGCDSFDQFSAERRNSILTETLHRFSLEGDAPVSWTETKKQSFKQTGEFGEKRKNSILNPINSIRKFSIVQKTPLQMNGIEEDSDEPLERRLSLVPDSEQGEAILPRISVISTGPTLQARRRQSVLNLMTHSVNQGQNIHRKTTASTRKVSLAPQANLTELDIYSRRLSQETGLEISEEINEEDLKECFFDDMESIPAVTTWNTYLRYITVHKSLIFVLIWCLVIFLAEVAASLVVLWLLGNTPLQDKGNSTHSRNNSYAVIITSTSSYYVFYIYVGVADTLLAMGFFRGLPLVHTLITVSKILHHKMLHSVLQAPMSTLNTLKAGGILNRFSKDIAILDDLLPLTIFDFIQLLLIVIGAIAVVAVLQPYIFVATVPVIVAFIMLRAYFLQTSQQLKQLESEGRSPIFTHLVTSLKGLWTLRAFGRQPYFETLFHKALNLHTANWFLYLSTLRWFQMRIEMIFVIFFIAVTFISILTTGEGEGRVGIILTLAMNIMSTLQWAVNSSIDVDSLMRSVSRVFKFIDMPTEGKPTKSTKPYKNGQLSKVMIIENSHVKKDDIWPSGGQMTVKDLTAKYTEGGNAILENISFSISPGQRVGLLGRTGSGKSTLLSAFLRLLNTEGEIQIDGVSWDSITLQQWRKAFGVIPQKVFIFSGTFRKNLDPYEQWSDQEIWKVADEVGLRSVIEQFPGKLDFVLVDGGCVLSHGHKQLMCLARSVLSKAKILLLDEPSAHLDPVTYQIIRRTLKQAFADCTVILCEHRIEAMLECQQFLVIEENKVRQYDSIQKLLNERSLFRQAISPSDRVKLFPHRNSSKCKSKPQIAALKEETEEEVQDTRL
experiment: YFP-halide influx assay for the CFTR-G178R
experimentalContext: read-out: EC50 measured by YFP-halide influx assay for the CFTR-G178R
EC50 strictly less than 100 nM = yes (1). Otherwise no (0).

Request: Please determine if CC1(C)Cc2c(sc(NC(=O)c3ccnn3COP(=O)(O)O)c2C(N)=O)C(C)(C)O1 is below 100 nM in terms of EC50.
Result: yes (1)

Request: Does the reported EC50 of CC1(C)Cc2c(sc(NC(=O)[C@@H](O)CC3CC3)c2C(N)=O)C(C)(C)O1 stay below 100 nM?
Result: yes (1)

Request: Consider the molecule CC1(C)Cc2c(sc(NC(=O)[C@@H](O)C(C)(C)C)c2C(N)=O)C(C)(C)O1 . Is its EC50 strictly less than 100 nM?
Result: yes (1)

Request: Does this molecule meet the criterion EC50 < 100 nM? CC(C)c1cc(C(=O)Nc2sc3c(c2C(N)=O)CC(C)(C)OC3(C)C)n[nH]1
Result: no (0)

Request: Is the reported EC50 for CC(C)C(O)C(=O)Nc1sc2c(c1C(N)=O)CC(C)(C)OC2(C)C (centres unmarked) [Compound 39] strictly below 100 nM?
Result: no (0)

Request: EC50 strictly < 100 nM for this molecule? CC1(C)Cc2c(sc(NC(=O)C(O)C(C)(C)C)c2C(N)=O)C(C)(C)O1 (centres unmarked)
Result: yes (1)

Request: Here's an entry: CC1(C)Cc2c(sc(NC(=O)c3n[nH]cc3C3=COCCO3)c2C(N)=O)C(C)(C)O1 . Is its EC50 below 100 nM?
Result: yes (1)
